- ASSAY TARGET: T1, MERS-CoV (NCoV/Novel coronavirus) Spike Protein fragment (RBD, aa 367-606, His Tag) (Sino 40071-V08B1) (MERS-CoV, UniProt K9N5Q8 367-606)
- T1 sequence: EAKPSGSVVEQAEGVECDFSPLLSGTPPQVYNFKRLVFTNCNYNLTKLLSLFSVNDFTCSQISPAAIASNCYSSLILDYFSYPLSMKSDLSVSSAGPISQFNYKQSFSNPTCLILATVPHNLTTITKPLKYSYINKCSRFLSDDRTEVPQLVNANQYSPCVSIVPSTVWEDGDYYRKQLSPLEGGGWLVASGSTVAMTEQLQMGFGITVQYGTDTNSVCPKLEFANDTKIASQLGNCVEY
- METHOD NOTES: Luminex, supernatant
ENDPOINT LABEL: MFI (MFI)
Record the value in MFI, omitting the unit from your answer.

Recorded MFI for mAb10984 (antibody, V domains shown) VH: EVQLVESGGGLVQPGGSLRLSCAASGLTVNRNYMSWVRQAPGKGLEWVSLIYSGGSTYYADSVKGRFTISRDNSKNTLYLQMNSLRLEDTAVYYCARGELGIPYGMDVWGQGTTVTVSS VL: QSVLTQPPSVSAAPGQKVTISCSGSSSNIGNNYVSWYQQLPGTAPKLLIYDNNKRPSGIPDRFSGSKSGTSATLGITGLQTGDEADYYCGTWDSSLSAGVFGGGTKLTVLG , please? 29

Recorded MFI for mAb10935 (antibody, V domains shown) VH: EVQLVESGGGLVQPGGSLRLSCAASGFTVSSNYMSWVRQAPGKGLEWVSLIYSGGSTYYADSVKGRFTISRHNSKNTLYLQMNSLRSEDTAVYYCARVPLGDYYYGMDVWGQGTTVTVSS VL: DIQMTQSPSSLSASVGDRVTITCQASQDINKYLNWYQQKPGKAPKLLIYDASNLETGVPSRFSGSGSGTDFTFTISSLQPEDIATYYCQQSDNLPLTFGGGTKVEIKR , please? 25

Recorded MFI for mAb10914 (antibody, V domains shown) VH: EVQLVESGGGLVQPGGSLRLSCAASGLIVSRNYMIWVRQAPGKGLEWVSVIYSGGSTFYADSVKGRFTISRHNSKNTLYLQMNSLRAEDTAVYYCARDLGTGGMDVWGQGTTVTVSS VL: DIQLTQSPSFLSASVGDRVTITCWASQGISSYLAWYQQKPGKAPKLLIYAASTLQSGVPSRFSGSGSGTEFTLTISSLQPEDFATYYCQQLNSYPLTFGGGTKVEIKR , please? 31

Recorded MFI for mAb10921 (antibody, V domains shown) VH: EVQLVESGGGLVQPGGSLRLSCAASGITVSSNYMSWVRQAPGKGLEWVSVIYSGGSTFYADSVKGRFTISRHNSKNTLYLQMNSLRAEDTAVYYCARERNFDAFDIWGQGTMVTVSS VL: DIQMTQSPSSVSASVGDRVTITCRASQGISSWLAWYQQKPGKAPKLLIYAASSLQSGVPSRFSGSGSGTDFTLTISSLQPEDFATYYCQQANSFPLFTFGPGTKVDIKR , please? 23

Hey, just so you know, these numbers are from patent US20240043504A1.
